I'd be grateful if you could share measured IC50 for these entries.
Target: T1, γ-secretase (Notch cleavage activity) (Homo sapiens, UniProt P49768)
T1 construct: endogenous in cells
Experiment: Cleaved Notch1 Sandwich ELISA (SUP-T1 cell line)
Details: SUP-T1 cells, 16 h
Source text: Cleaved Notch1 Sandwich ELISA. This assay was used to determine if the compounds of interest inhibit the Notch cleavage activity of γ-secretase in SUP-T1 cell line, which endogenously expresses a truncated Notch receptor fragment that is a viable gamma-secretase substrate. The base medium for this cell line is ATCC-formulated RPMI-1640 Medium with fetal bovine serum to a final concentration of 10%. […]
One number for each entry, in µM.

Sample records with IC50:
O=C(O)c1ccc(CN(C2CCCC(C(F)(F)F)C2)S(=O)(=O)c2ccc(Cl)cc2)cc1 (single isomer, unassigned) [Example 53]
34.8
C[C@H](O)CNC(=O)c1ccc(CN(C2CCCCC2F)S(=O)(=O)c2ccc(Cl)cc2)cc1 (some centres unmarked) [Example 73]
1.1
CC1CCCCC1N(Cc1ccc(C(=O)NCCN2CCCC2)cc1)S(=O)(=O)c1ccc(Cl)cc1 (centres unmarked) [Example 38]
0.667
CCN(CCN1CCCC1)C(=O)c1ccc(CN(C2CCCCC2C)S(=O)(=O)c2ccc(Cl)cc2)cc1 (centres unmarked) [Example 39]
2.26
C[C@H](CO)NC(=O)c1ccc(CN(C2CCCC(C(F)(F)F)C2)S(=O)(=O)c2ccc(Cl)nc2)cc1 (some centres unmarked) [Example 64]
1.07

Please go through the list and note IC50 for each molecule.
1. C[C@H](CO)NC(=O)c1ccc(CN(C2CCCCC2F)S(=O)(=O)c2ccc(Cl)cc2)c(F)c1F (some centres unmarked) [Example 77]
2. O=C(O)c1ccc(CN(C2CCCCC2C(F)(F)F)S(=O)(=O)c2ccc(Cl)cc2)cc1 (centres unmarked) [Example 68]
3. O=C(O)c1ccc(CN(C2CCCCC2F)S(=O)(=O)c2ccc(Cl)cc2)cc1 (centres unmarked) [Example 57]
4. CC(=O)CNC(=O)c1ccc(CN(C2CCCCC2C)S(=O)(=O)c2ccc(Cl)cc2)cc1 (centres unmarked) [Example 48]
5. COC[C@@H](C)NC(=O)c1ccc(CN(C2CCCCC2C)S(=O)(=O)c2ccc(Cl)cc2)cc1 (some centres unmarked) [Example 14]

1.02
0.83
1.07
0.22
0.71

Could you tell me IC50 for each of these molecules? They are listed below.
1. C[C@H](CO)NC(=O)c1ccc(CN(C2CCCCC2F)S(=O)(=O)c2ccc(Cl)cc2)cc1 (some centres unmarked) [Example 60]
2. CC1CCCCC1N(Cc1ccc(C(=O)NC[C@H](C)O)cc1)S(=O)(=O)c1ccc(Cl)cc1 (some centres unmarked) [Example 47]
3. O=C(O)c1ccc(CN(C2CCCCC2F)S(=O)(=O)c2ccc(Cl)cc2)cc1 (single isomer, unassigned) [Example 59]
4. CC1CCCCC1N(Cc1ccc(C(=O)N[C@@H](C)CO)cc1)S(=O)(=O)c1ccc(Cl)cc1 (some centres unmarked) [Example 5]

1.55
0.35
2.93
0.16

Batch of 4 molecules: report IC50 for each.
1. O=C(O)c1ccc(CN(C2CCCCC2)S(=O)(=O)c2ccc(Cl)cc2)cc1 [Example 45]
2. COC[C@@H](C)NC(=O)c1ccc(CN(C2CCCCC2C)S(=O)(=O)c2ccc(Cl)cc2)cc1 (some centres unmarked) [Example 46]
3. O=C(NCCO)c1ccc(CN(C2CCCCC2F)S(=O)(=O)c2ccc(Cl)cc2)cc1 (centres unmarked) [Example 66]
4. O=C(O)c1ccc(CN(C2CCCCC2F)S(=O)(=O)c2ccc(Cl)cc2)c(F)c1F (centres unmarked) [Example 72]

1. 35.9
2. 0.71
3. 1.38
4. 3.54

Batch of 2 molecules: report IC50 for each.
1. COCC(C)NC(=O)c1ccc(CN(C2CCCCC2F)S(=O)(=O)c2ccc(Cl)cc2)cc1 (centres unmarked) [Example 85]
2. CN(C)CCNC(=O)c1ccc(CN(C2CCCCC2F)S(=O)(=O)c2ccc(Cl)cc2)cc1.Cl (centres unmarked) [Example 75, hydrochloride]

[1.18, 4.14]
